TEST_PROTOCOL: effects on testis function: body, testis and seminal vesicle weight
Type: in vivo, mice (ICR-Swiss adult male)
CONDITION_SUMMARY: average; 0.2 mg per day s.c., 10 days
PROPERTY_MEASURED: Testes Paired weight (mg)

1. Oc1ccc2c(c1)CCc1cn[nH]c1-2 [Compound 2, 4,5-Dihydro-1H-benz[g]indazol-7-ol]	242.0
2. CC12CCc3cc(O)ccc3C1=NNC2=O (racemic) [Compound 4c]	261.0
3. COc1ccc2c3c(ccc2c1)-c1[nH]ncc1CC3 [Compound 11b]	229.0
4. COc1ccc2c3c(ccc2c1)C1=NCCC1(C)CC3 (stereo not shown) [Compound 5d]	201.6
